Where these numbers come from: the kinase profiling compilation of Christmann-Franck et al. (2016)

Assay target: CDK5 CDK5R1 p25 (human) (UniProt Q00535+Q15078)
Sequence (Q00535 whole entry, looked up): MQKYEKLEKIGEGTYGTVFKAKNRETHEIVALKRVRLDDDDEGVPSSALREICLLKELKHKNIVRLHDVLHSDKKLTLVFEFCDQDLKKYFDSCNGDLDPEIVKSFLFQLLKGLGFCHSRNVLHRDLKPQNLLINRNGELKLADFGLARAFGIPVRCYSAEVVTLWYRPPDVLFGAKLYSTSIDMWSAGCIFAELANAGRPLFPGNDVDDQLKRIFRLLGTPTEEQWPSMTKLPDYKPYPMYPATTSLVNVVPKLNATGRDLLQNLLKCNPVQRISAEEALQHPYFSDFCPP
Sequence (Q15078 whole entry, looked up): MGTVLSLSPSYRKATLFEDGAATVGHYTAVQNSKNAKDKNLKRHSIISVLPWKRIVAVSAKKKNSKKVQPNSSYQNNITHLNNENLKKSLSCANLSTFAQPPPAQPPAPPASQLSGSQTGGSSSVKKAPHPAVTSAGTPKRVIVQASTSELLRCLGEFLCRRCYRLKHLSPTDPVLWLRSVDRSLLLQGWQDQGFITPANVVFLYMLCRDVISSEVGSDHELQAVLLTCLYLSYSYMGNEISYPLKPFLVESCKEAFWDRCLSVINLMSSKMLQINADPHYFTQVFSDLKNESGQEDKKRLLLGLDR
Test description: radiometric filter-binding kinase assay, Kinase HotSpot
Recorded conditions: compound 0.5 µM; ATP 10 µM
Endpoint label: residual activity (%)
Return type: number; implicit unit %.

[[record]]
structure_smiles_string = "COc1cccc(-c2cc(=O)c3ccccc3o2)c1N"
assay_target = "CDK5 CDK5R1 p25 (human) (UniProt Q00535+Q15078)"
result_number = 87.5

[[record]]
structure_smiles_string = "O=S(=O)(NCCNC/C=C/c1ccc(Br)cc1)c1cccc2cnccc12"
assay_target = "CDK5 CDK5R1 p25 (human) (UniProt Q00535+Q15078)"
result_number = 113

[[record]]
structure_smiles_string = "O=C(O)c1ccc2c3c1cccc3c(=O)n1c3ccccc3nc21"
assay_target = "CDK5 CDK5R1 p25 (human) (UniProt Q00535+Q15078)"
result_number = 80.6

[[record]]
structure_smiles_string = "CCc1nc(-c2ccc(OC)cc2)[nH]c1-c1ccncc1"
assay_target = "CDK5 CDK5R1 p25 (human) (UniProt Q00535+Q15078)"
result_number = 95.9

[[record]]
structure_smiles_string = "N#CCCc1ccc2c(c1)-c1[nH]c3ccc([N+](=O)[O-])cc3c1CC(=O)N2"
assay_target = "CDK5 CDK5R1 p25 (human) (UniProt Q00535+Q15078)"
result_number = 5.79

[[record]]
structure_smiles_string = "CCOc1cc2ncnc(Nc3cccc(Br)c3)c2cc1OCC"
assay_target = "CDK5 CDK5R1 p25 (human) (UniProt Q00535+Q15078)"
result_number = 89.5


(Q) Query: residual activity; subject: "N#Cc1c(NC(=O)c2cccc3ccccc23)sc2c1CCCC2"
(A) 100

(Q) Query: residual activity; subject: "O=C1NC(=O)c2c1c1c3ccccc3[nH]c1c1[nH]c3cc(Br)ccc3c21"
(A) 43.4

(Q) Query: residual activity; subject: "Cn1cc(/C=C2\C(=O)Nc3ccc(S(N)(=O)=O)cc32)c2ccccc21"
(A) 58

(Q) Query: residual activity; subject: "COc1cc2ncnc(Nc3ccc(O)c(Br)c3)c2cc1OC"
(A) 98.4

* * *

Assay target: FLT3 (human) (UniProt P36888)
Sequence (P36888 whole entry, looked up): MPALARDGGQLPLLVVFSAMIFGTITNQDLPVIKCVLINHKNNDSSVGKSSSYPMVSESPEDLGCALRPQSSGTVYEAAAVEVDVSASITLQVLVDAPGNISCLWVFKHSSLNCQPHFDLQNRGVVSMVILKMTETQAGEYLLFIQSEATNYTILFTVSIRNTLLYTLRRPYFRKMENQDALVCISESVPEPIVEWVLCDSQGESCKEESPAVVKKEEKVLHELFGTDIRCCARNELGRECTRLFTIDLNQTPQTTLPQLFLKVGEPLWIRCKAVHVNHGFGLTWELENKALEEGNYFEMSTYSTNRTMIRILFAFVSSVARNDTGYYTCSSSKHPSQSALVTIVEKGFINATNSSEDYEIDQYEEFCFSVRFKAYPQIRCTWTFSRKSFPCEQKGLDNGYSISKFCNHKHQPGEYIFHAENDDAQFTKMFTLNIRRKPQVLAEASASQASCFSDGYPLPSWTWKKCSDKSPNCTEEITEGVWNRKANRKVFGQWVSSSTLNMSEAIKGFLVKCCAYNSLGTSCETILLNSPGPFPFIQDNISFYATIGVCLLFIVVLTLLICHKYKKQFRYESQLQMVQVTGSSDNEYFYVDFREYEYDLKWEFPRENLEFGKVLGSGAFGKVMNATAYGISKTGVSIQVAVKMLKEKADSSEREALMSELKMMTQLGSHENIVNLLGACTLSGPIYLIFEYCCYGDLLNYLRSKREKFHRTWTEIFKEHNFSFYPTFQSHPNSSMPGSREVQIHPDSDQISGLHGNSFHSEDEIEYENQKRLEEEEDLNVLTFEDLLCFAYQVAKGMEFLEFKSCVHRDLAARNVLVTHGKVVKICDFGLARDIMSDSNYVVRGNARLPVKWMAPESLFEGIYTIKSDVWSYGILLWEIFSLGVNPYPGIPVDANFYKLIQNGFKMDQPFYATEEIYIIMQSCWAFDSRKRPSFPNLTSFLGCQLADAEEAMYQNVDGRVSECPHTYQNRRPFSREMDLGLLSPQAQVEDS
Test description: radiometric filter-binding kinase assay, Kinase HotSpot
Recorded conditions: compound 0.5 µM; ATP 10 µM
Record label 1 whenever residual activity is at 10% or higher; record label 0 when lower.

Before answering, review these 5 worked examples.
[[record]]
structure_smiles_string = "c1ccc(-c2cnc(Nc3ccc(OCCN4CCCC4)cc3)s2)cc1"
assigned_class = "label 0"

[[record]]
structure_smiles_string = "O=c1c(-c2ccc(F)cc2)c(-c2ccncc2)[nH]n1-c1ccc(Cl)cc1"
assigned_class = "label 1"

[[record]]
structure_smiles_string = "N/C(=N\\N=C/c1ccc(-c2cccc([N+](=O)[O-])c2)o1)N[N+](=O)[O-]"
assigned_class = "label 1"

[[record]]
structure_smiles_string = "Cc1cc(Nc2nc(-c3ccccc3)nc3ccccc23)n[nH]1"
assigned_class = "label 1"

[[record]]
structure_smiles_string = "COc1cc2c(cc1OC)-c1[nH]nc(Nc3cccc(F)c3)c1C2"
assigned_class = "label 1"


(Q) Is residual activity for "COc1cccc(-c2cc(=O)c3ccccc3o2)c1N" at or above 10%?
(A) label 1

(Q) Is residual activity for "O=C1NC(=O)c2c1c1c3ccccc3[nH]c1c1[nH]c3cc(Br)ccc3c21" at or above 10%?
(A) label 0

(Q) Is residual activity for "O=c1cc(N2CCOCC2)oc2c(-c3ccccc3)cccc12" at or above 10%?
(A) label 1

* * *

Assay target: PKN1 (human)
Test description: radiometric filter-binding kinase assay, Kinase HotSpot
Recorded conditions: compound 0.5 µM; ATP 10 µM
# residual activity per record follows
Return type: number; implicit unit %.

[[record]]
structure_smiles_string = "COc1cc2c(Nc3ccc(Br)cc3F)ncnc2cc1OCC1CCN(C)CC1"
result_number = 103


(Q) Query: residual activity; subject: "O=C(O)c1ccc2c3c1cccc3c(=O)n1c3ccccc3nc21"
(A) 99.5

* * *

Assay target: AKT1 (human)
Test description: radiometric filter-binding kinase assay, Kinase HotSpot
Recorded conditions: compound 0.5 µM; ATP 10 µM
# residual activity per record follows
Return type: number; implicit unit %.

(Q) Query: residual activity; subject: "COc1cc2c(N3CCN(C(=O)Nc4ccc(OC(C)C)cc4)CC3)ncnc2cc1OCCCN1CCCCC1"
(A) 102

* * *

Assay target: AKT2 (human) (UniProt P31751)
Sequence (P31751 whole entry, looked up): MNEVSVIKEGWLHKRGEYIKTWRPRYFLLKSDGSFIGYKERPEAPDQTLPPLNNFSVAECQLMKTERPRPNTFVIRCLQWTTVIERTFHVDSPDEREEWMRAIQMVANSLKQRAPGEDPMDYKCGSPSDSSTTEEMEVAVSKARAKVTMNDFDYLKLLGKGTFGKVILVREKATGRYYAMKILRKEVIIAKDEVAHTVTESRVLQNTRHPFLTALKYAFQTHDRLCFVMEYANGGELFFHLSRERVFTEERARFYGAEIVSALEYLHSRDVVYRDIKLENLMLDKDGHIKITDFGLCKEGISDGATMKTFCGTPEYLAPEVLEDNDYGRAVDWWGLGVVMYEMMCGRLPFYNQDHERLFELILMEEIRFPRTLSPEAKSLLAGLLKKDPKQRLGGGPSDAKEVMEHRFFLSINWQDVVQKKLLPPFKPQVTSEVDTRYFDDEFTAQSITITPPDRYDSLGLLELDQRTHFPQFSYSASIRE
Test description: radiometric filter-binding kinase assay, Kinase HotSpot
Recorded conditions: compound 0.5 µM; ATP 10 µM
Endpoint label: residual activity (%)
Return type: number; implicit unit %.

Record excerpt, results attached:
[[record]]
structure_smiles_string = "O=c1[nH]c2ccccc2n1C1CCN(Cc2ccc(-c3nc4cc5[nH]cnc5cc4nc3-c3ccccc3)cc2)CC1"
result_number = 96.8

[[record]]
structure_smiles_string = "N#C/C(=C1/Nc2ccccc2S1)c1ccnc(NCCc2cccnc2)n1"
result_number = 104

[[record]]
structure_smiles_string = "O=S(=O)(NCCNC/C=C/c1ccc(Br)cc1)c1cccc2cnccc12"
result_number = 75.4

[[record]]
structure_smiles_string = "FC(F)(F)c1ccc(/C=C/c2nc(COc3ccc(CCCCn4ccnn4)cc3)co2)cc1"
result_number = 99.9

[[record]]
structure_smiles_string = "COc1cc2c(N3CCN(C(=O)Nc4ccc(OC(C)C)cc4)CC3)ncnc2cc1OCCCN1CCCCC1"
result_number = 97.9

[[record]]
structure_smiles_string = "O=c1c(-c2ccc(F)cc2)c(-c2ccncc2)[nH]n1-c1ccc(Cl)cc1"
result_number = 97.8

[[record]]
structure_smiles_string = "COc1cccc(-c2cc(=O)c3ccccc3o2)c1N"
result_number = 97.4

[[record]]
structure_smiles_string = "Nc1ncnc2c1cnn2-c1ccccc1"
result_number = 102

[[record]]
structure_smiles_string = "N#Cc1c(NC(=O)c2cccc3ccccc23)sc2c1CCCC2"
result_number = 105


Now consider the entry below.
(Q) Query: residual activity; subject: "Cn1cc(/C=C2\C(=O)Nc3ccc(S(N)(=O)=O)cc32)c2ccccc21"
(A) 88.6

* * *

Assay target: STK24 (human) (UniProt Q9Y6E0)
Sequence (Q9Y6E0 whole entry, looked up): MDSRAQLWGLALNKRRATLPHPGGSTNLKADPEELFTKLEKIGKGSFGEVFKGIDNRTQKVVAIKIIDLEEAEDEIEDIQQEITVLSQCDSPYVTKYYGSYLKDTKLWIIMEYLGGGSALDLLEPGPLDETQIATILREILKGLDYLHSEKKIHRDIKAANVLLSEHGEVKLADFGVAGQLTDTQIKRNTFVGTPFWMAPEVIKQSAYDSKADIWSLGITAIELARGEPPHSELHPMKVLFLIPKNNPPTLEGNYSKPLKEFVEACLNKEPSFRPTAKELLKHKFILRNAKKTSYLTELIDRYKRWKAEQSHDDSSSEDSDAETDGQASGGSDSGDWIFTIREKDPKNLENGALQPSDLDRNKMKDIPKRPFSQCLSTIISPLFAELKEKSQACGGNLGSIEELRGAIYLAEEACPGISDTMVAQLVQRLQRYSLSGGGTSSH
Test description: radiometric filter-binding kinase assay, Kinase HotSpot
Recorded conditions: compound 0.5 µM; ATP 10 µM
# residual activity per record follows
Return type: number; implicit unit %.

[[record]]
structure_smiles_string = "N#C/C(=C1/Nc2ccccc2S1)c1ccnc(NCCc2cccnc2)n1"
endpoint_label = "residual activity"
result_number = 95.6

[[record]]
structure_smiles_string = "O=C(O)c1ccc2c3c1cccc3c(=O)n1c3ccccc3nc21"
endpoint_label = "residual activity"
result_number = 87.6

[[record]]
structure_smiles_string = "N/C(=N\\N=C/c1ccc(-c2cccc([N+](=O)[O-])c2)o1)N[N+](=O)[O-]"
endpoint_label = "residual activity"
result_number = 87.7


(Q) Query: residual activity; subject: "c1ccc(-c2cnc(Nc3ccc(OCCN4CCCC4)cc3)s2)cc1"
(A) 99.6

(Q) Query: residual activity; subject: "O=c1[nH]c2ccccc2n1C1CCN(Cc2ccc(-c3nc4cc5[nH]cnc5cc4nc3-c3ccccc3)cc2)CC1"
(A) 90.7

(Q) Query: residual activity; subject: "CCc1nc(-c2ccc(OC)cc2)[nH]c1-c1ccncc1"
(A) 93.2

(Q) Query: residual activity; subject: "O=c1c(-c2ccc(F)cc2)c(-c2ccncc2)[nH]n1-c1ccc(Cl)cc1"
(A) 111

(Q) Query: residual activity; subject: "O=C1NC(=O)c2cc(Nc3ccc(F)cc3)c(Nc3ccc(F)cc3)cc21"
(A) 93.7

(Q) Query: residual activity; subject: "COc1cc2c(cc1OC)-c1[nH]nc(Nc3cccc(F)c3)c1C2"
(A) 99.9

(Q) Query: residual activity; subject: "N#Cc1c(NC(=O)c2cccc3ccccc23)sc2c1CCCC2"
(A) 90.3

(Q) Query: residual activity; subject: "O=C1NC(=O)c2c1c1c3ccccc3[nH]c1c1[nH]c3cc(Br)ccc3c21"
(A) 80.1

(Q) Query: residual activity; subject: "COc1cc2c(Nc3ccc(Br)cc3F)ncnc2cc1OCC1CCN(C)CC1"
(A) 104

(Q) Query: residual activity; subject: "Cn1cc(/C=C2\C(=O)Nc3ccc(S(N)(=O)=O)cc32)c2ccccc21"
(A) 80.2

(Q) Query: residual activity; subject: "CCOc1cc2ncnc(Nc3cccc(Br)c3)c2cc1OCC"
(A) 97.6

(Q) Query: residual activity; subject: "O=c1cc(N2CCOCC2)oc2c(-c3ccccc3)cccc12"
(A) 97.1

* * *

Assay target: PRKCE (human) (UniProt Q02156)
Sequence (Q02156 whole entry, looked up): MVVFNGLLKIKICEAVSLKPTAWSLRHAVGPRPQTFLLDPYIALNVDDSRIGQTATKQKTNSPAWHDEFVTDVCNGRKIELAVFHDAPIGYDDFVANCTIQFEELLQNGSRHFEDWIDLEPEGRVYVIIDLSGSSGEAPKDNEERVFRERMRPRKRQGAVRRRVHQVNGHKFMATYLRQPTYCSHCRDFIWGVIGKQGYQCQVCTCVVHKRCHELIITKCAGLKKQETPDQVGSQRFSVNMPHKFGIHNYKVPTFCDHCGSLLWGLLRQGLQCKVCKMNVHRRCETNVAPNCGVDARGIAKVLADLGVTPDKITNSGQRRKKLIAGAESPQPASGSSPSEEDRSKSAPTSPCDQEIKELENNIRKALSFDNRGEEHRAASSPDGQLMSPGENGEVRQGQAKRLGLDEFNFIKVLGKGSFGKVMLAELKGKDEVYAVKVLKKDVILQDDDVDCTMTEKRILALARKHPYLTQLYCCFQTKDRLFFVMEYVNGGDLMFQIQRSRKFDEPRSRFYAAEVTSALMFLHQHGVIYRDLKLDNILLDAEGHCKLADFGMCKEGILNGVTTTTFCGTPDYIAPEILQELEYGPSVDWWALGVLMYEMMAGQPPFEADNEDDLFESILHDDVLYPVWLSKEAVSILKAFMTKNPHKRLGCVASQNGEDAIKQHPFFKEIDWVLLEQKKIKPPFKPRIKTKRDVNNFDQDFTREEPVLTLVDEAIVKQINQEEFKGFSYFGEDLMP
Test description: radiometric filter-binding kinase assay, Kinase HotSpot
Recorded conditions: compound 0.5 µM; ATP 10 µM
# residual activity per record follows
Return type: number; implicit unit %.

[[record]]
structure_smiles_string = "O=c1c(-c2ccc(F)cc2)c(-c2ccncc2)[nH]n1-c1ccc(Cl)cc1"
assay_target = "PRKCE (human) (UniProt Q02156)"
result_number = 96.7


(Q) Please tell me: residual activity of "O=c1[nH]c2ccccc2n1C1CCN(Cc2ccc(-c3nc4cc5[nH]cnc5cc4nc3-c3ccccc3)cc2)CC1" , system PRKCE (human) (UniProt Q02156)?
(A) 109

(Q) Please tell me: residual activity of "N#Cc1c(NC(=O)c2cccc3ccccc23)sc2c1CCCC2" , system PRKCE (human) (UniProt Q02156)?
(A) 99.1

(Q) Please tell me: residual activity of "N#C/C(=C1/Nc2ccccc2S1)c1ccnc(NCCc2cccnc2)n1" , system PRKCE (human) (UniProt Q02156)?
(A) 92.1

(Q) Please tell me: residual activity of "O=c1c2ccccc2[nH]c(=S)n1CCN1CCC(=C(c2ccc(F)cc2)c2ccc(F)cc2)CC1" , system PRKCE (human) (UniProt Q02156)?
(A) 100

(Q) Please tell me: residual activity of "COc1cccc(-c2cc(=O)c3ccccc3o2)c1N" , system PRKCE (human) (UniProt Q02156)?
(A) 82.4

(Q) Please tell me: residual activity of "c1ccc(-c2cnc(Nc3ccc(OCCN4CCCC4)cc3)s2)cc1" , system PRKCE (human) (UniProt Q02156)?
(A) 90.5

(Q) Please tell me: residual activity of "FC(F)(F)c1ccc(/C=C/c2nc(COc3ccc(CCCCn4ccnn4)cc3)co2)cc1" , system PRKCE (human) (UniProt Q02156)?
(A) 101

(Q) Please tell me: residual activity of "O=c1cc(N2CCOCC2)oc2c(-c3ccccc3)cccc12" , system PRKCE (human) (UniProt Q02156)?
(A) 102

(Q) Please tell me: residual activity of "N/C(=N\N=C/c1ccc(-c2cccc([N+](=O)[O-])c2)o1)N[N+](=O)[O-]" , system PRKCE (human) (UniProt Q02156)?
(A) 90.5
